# system under test: Muscarinic acetylcholine receptor M1 (Homo sapiens)
# assay name: human M1 muscarinic receptor agonists, primary screen, Fluo-8 calcium fluorescence, CHO-K1 cells, HTS (AID 588814);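 also: peak over basal fluorescence ratio within a 140 s kinetic read after compound addition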
# test parameters: CHO-K1 hM1, Fluo-8 calcium fluorescence, agonist mode; at 3 µM; 0% DMSO, 100% acetylcholine EC100
Hit rate of the full screen: of about 360,000 compounds, about 1,200 (0.33%) were called active.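 The calls were made as follows: active = activation above the run's mean compound activation plus 3 SD (cut at about 16% in these data); inactive = the rest.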 Many of the other results were omitted from the sample, so actives are more common in it than they were.
Labels: active, inactive

{"columns": ["compound", "system under test", "assigned category"],
 "data": [
  ["CCc1nc2c(OCCOc3ccccc3)cccn2c1N(C=O)Cc1ccc(OC)cc1", "Muscarinic acetylcholine receptor M1 (Homo sapiens)", "inactive"],
  ["CCCc1cc(=O)[nH]c(SCC(=O)Nc2ccc(S(=O)(=O)N3CCCC3)cc2)n1", "Muscarinic acetylcholine receptor M1 (Homo sapiens)", "inactive"],
  ["COc1ccc(NC(=O)C2(C)Cc3c(-c4cccc(NC(C)=O)c4)ccnc3O2)cc1 (stereo not given)", "Muscarinic acetylcholine receptor M1 (Homo sapiens)", "inactive"],
  ["COc1ccc(C(CCNCc2ccccc2F)c2ccc(F)cc2)cc1 (stereo not given)", "Muscarinic acetylcholine receptor M1 (Homo sapiens)", "inactive"],
  ["COc1cccc(CNCCc2c[nH]c3ccccc23)c1OCc1ccccc1F", "Muscarinic acetylcholine receptor M1 (Homo sapiens)", "active"]
]}
